Target: recombinant human 5-HT5A receptor (Homo sapiens, UniProt P47898)
Sequence (P47898 whole entry): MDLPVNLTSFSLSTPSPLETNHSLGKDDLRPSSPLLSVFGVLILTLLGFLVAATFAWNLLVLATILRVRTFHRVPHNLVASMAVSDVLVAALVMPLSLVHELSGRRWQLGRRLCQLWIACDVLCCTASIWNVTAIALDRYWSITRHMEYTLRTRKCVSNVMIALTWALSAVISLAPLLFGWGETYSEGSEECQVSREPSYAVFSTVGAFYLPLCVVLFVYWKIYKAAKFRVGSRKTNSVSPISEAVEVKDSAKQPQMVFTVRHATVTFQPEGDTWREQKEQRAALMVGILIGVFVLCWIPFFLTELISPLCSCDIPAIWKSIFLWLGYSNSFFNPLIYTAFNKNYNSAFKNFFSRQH
Assay: [3H]LSD radioligand binding assay
Conditions: [3H]LSD (approximately 1 nM); membranes from HEK-EBNA cells transiently expressing 5-HT5A; Ki by Cheng-Prussoff equation; read-out: Ki
Protocol: A [^3H]LSD radioligand binding assay was used to determine the affinity of the compounds for the recombinant human 5-HT5A receptor, in membranes from transiently (cDNA) expressed 5-HT5A receptors in Human Embryonic Kidney-EBNA (HEK-EBNA) cells. […] Bound ligand was determined using a Packard Topcount scintillation counter. IC50 values were calculated using a non-linear curve fitting program and Ki values calculated using the Cheng-Prussoff equation.
measurement-name: pKi
Give bare numbers, as −log10 of the molar value.

Worked cases, answers included:
COc1cccc2c1C(NC1=Nc3ccc(NS(=O)(=O)C4CC4)cc3CO1)CO2 (racemic) = 7.90
FC(F)(F)c1ccnc(Nc2ccc3c(c2)COC(N[C@@H]2CCc4ccccc42)=N3)n1 = 8.15

# next molecule below
Query string: Retrieve pKi measured for O=C(Nc1ccc2c(c1)COC(NC1CCOc3ccccc31)=N2)C1CC1 (racemic) and print it.
Result string: 8.08

###

Molecular target: recombinant human 5-HT5A receptor (Homo sapiens)
Test: [3H]LSD radioligand binding assay
Conditions: [3H]LSD (approximately 1 nM); membranes from HEK-EBNA cells transiently expressing 5-HT5A; Ki by Cheng-Prussoff equation; read-out: Ki
Decide using Ki alone. Strictly below 6 nM: satisfied. Equal to or above 6 nM: not satisfied.

Answered examples (3):
Nc1ccc2c(c1)COC(N[C@@H]1CCCc3ccccc31)=N2 [Example 33] = not satisfied
CN1CCN(CC(=O)Nc2ccc3c(c2)COC(N[C@@H]2CCc4ccccc42)=N3)CC1 [Example 3] = satisfied
NCc1ccc2c(c1)COC(N[C@@H]1CCc3ccccc31)=N2 [Example 129] = not satisfied

Query string: Would you kindly verify if Ki of Nc1ccc2c(c1)COC(NC1CCCCCCC1)=N2 [Example 153] is strictly less than 6 nM?
Result string: not satisfied

###

Biological target: recombinant human 5-HT5A receptor (Homo sapiens, UniProt P47898)
Experiment: [3H]LSD radioligand binding assay
Settings: [3H]LSD (approximately 1 nM); membranes from HEK-EBNA cells transiently expressing 5-HT5A; Ki by Cheng-Prussoff equation; read-out: Ki
measurement-name: pKi
One number for each entry, as −log10 of the molar value.

Worked cases, answers included:
COc1ccccc1CNC1=Nc2ccc(NC(=O)CN3CCN(C)CC3)cc2CO1 = 8.21
FC(F)(F)c1nnc(Nc2ccc3c(c2)COC(N[C@@H]2CCc4ccccc42)=N3)o1 = 8.06

Provide the reported pKi of each entry below, same order.
1. COc1cccc2c1C(NC1=Nc3ccc(NS(=O)(=O)N(C)C)cc3CO1)CO2 (racemic)
2. Nc1ccc2c(c1)COC(NC1CCOc3ccccc31)=N2 (racemic)
3. COc1cccc2c1C(NC1=Nc3ccc(NC(=O)C4CC4)cc3CO1)CCC2 (racemic)
4. c1c[nH]c(CNc2ccc3c(c2)COC(NC2CCCCCC2)=N3)n1
5. COc1cccc2c1C(NC1=Nc3ccc(NS(=O)(=O)C4CC4)cc3CO1)CC2 (racemic)
6. O=C(CN1CCN(CC(F)(F)F)CC1)Nc1ccc2c(c1)COC(N[C@@H]1CCc3ccccc31)=N2
7. O=S(=O)(Nc1ccc2c(c1)COC(Nc1cccc(C3CC3)c1)=N2)c1ccccc1

Result string:
1: 7.68; 2: 7.79; 3: 8.73; 4: 7.50; 5: 8.55; 6: 7.48; 7: 6.52

Provide the reported pKi of each entry below, same order.
1. O=C(NCc1ccc2c(c1)COC(N[C@@H]1CCc3ccccc31)=N2)c1ccc(F)cc1
2. COc1cccc2c1C(NC1=Nc3ccc(Nc4nnn(C(C)(C)C)n4)cc3CO1)CC2 (racemic)
3. O=C(CN1CCSCC1)Nc1ccc2c(c1)COC(N[C@@H]1CCc3ccccc31)=N2

Result string:
7.32
8.34
8.12

Provide the reported pKi of each entry below, same order.
1. Nc1ccc2c(c1)COC(NC1CCCCCC1)=N2
2. c1cc(NC2=Nc3ccc(NCc4ncc[nH]4)cc3CO2)cc(C2CC2)c1
3. COc1cccc2c1C(NC1=Nc3ccc(NC(=O)C4CC4)cc3CO1)CC2 (racemic)
4. COCC1CN(CC(=O)Nc2ccc3c(c2)COC(NC2CCc4cccc(OC)c42)=N3)CCN1C (centres unmarked)
5. CN1CCN(S(=O)(=O)Nc2ccc3c(c2)COC(N[C@@H]2CCCc4ccccc42)=N3)CC1
6. Nc1ccc2c(c1)COC(N[C@@H]1CCc3ccccc31)=N2
7. Nc1ccc2c(c1)COC(NC1CCc3cc(F)ccc31)=N2 (racemic)

Result string:
7.78
7.43
8.97
8.43
6.86
8.98
8.90

Query string: Retrieve pKi measured for `O=C(Nc1ccc2c(c1)COC(NC1CCCCCC1)=N2)C1CC1` and print it.
Result string: 8.26
